Sourced from the supplement of paper PMC10567573

# protocol: protein stability index of a GFP-peptide fusion (GPS, HEK-293T) (PSI 1-6); higher = more stable;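 further: 24-mer peptide tiles fused after GFP, lentivirally expressed, FACS-sorted into six equal bins by GFP/DsRed ratio, decoded by Illumina sequencing, PSI is the read-weighted mean bin number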
# settings: treatment: MLN4924 1 uM, 8 h; c terminus: a fixed tail appended
Entries and their protein stability index values follow.
No unit in the answer, only the number.

// known answers, use as guide
LNDRLASYLDKVRALEEANTELEV [KRT17] : 4.17
NLYVFGGYNPDYDESGGPDNEDYP [KLHDC10] : 4.09
TYQVHDYLRSKLCSLYENDCIFDK [PPP2R2C] : 2.32

Entry RHSKGLQILGQTLKASMRELGLLI [KCNA1] has what protein stability index?
2.89

Consider next the sequence FPFQAMVQFHRHHGQEGSILVTKV [GMPPB] in the same way.
2.07

Consider next the sequence SLRGRAWQYLSGGKVKLQQNPGKF [TBC1D10A] in the same way.
2.94

Consider next the sequence GGNKKSDGVKESSESTNTTIEDED [CAMK2A] in the same way.
5.53
